B1: BEX1 (parent)
chain: EENMERIGEEVRQLMEKLREKQLS

- Variants of: B1
- procedure-details: protein stability index of a GFP-peptide fusion (GPS, HEK-293T) (PSI 1-6); higher = more stable;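 further: lentivirally expressed fusions sorted by FACS into six bins by GFP to DsRed ratio, PSI derived from sequencing read proportions per bin multiplied by bin number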
- experimental-setup: c terminus: a fixed tail appended
quantity: protein stability index

Use the examples below as a reference point.
protein stability index for `R12N` ? 4.1

Same again, this time with `E1S` 4

Turning now to a further variant:
protein stability index for `L23S` ? 3.89
